B1: library; a variant is named by its letters at N, in order (parent)
chain: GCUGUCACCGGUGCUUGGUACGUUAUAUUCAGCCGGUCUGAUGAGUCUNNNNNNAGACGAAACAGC

Variants of: B1
Protocol description: FACS-Seq fitted mean relative fluorescence mCherry/BFP with ligand (log10 relative fluorescence); HEK293T overexpressing SLC46A1; ligand concentration (+) FACS-Seq: 6 mM; higher = higher reporter protein expression
Reported conditions: with (6R,S)-folinic acid; ligand present: yes
Experimental endpoint: FACS-Seq fitted mean (log10)
Give the value as a plain number.

Below, 5 variants whose answers are already recorded.
Variant string: CCAGCC
Experimental endpoint: FACS-Seq fitted mean (log10)
Value reported: -0.0156
//
Variant string: ACGUUU
Experimental endpoint: FACS-Seq fitted mean (log10)
Value reported: -0.00103
//
Variant string: UGUUUG
Experimental endpoint: FACS-Seq fitted mean (log10)
Value reported: 0.62
//
Variant string: AUGCGG
Experimental endpoint: FACS-Seq fitted mean (log10)
Value reported: 0.185
//
Variant string: GUAUAG
Experimental endpoint: FACS-Seq fitted mean (log10)
Value reported: 0.546

Asked: I am curious: what FACS-Seq fitted mean (log10) value has been reported for `UCAUGC` ?
Given back: 0.485

Asked: Repeat with `AGCAAA`
Given back: 0.532

Asked: Repeat with `UACAGU`
Given back: 0.133
